Give measured bioavailability for each item. Keep answers brief.
# PROCEDURE_DETAILS: Oral bioavailability in fasted Beagle dog at 10 mg/kg measured for 24 hrs by LC-MS analysis
# Type: ADME, organism-based, Canis lupus familiaris
# TEST_CONTEXT: in vivo
One number for each entry, in %.

compound=O=C(CCOC[C@@H]1CCN1c1cn[nH]c(=O)c1C(F)(F)F)N1CCN2c3ncc(C(F)(F)F)cc3OC[C@@H]2C1 number=45.2

// switching to the query compound
Name the recorded bioavailability for C[C@@H](COCCC(=O)N1CCN(c2ncc(C(F)(F)F)cn2)CC1)Nc1cn[nH]c(=O)c1C(F)(F)F [ATAMPARIB] .
23.4

* * *

# PROCEDURE_DETAILS: Efflux ratio of apparent permeability across basolateral to apical side over apical to basolateral side in MDCKII-MDR1 cells incubated for 2 hrs by LC-MS analysis
# Type: ADME, cell-based, Canis lupus familiaris
# TEST_CONTEXT: dog, MDCK-MDR1
OBSERVED_PROPERTY: efflux ratio at 2 h
One number for each entry.

# input compound: O=C(CCOC[C@@H]1CCN1c1cn[nH]c(=O)c1C(F)(F)F)N1CCN2c3ncc(C(F)(F)F)cc3OC[C@@H]2C1 ; wanted: its efflux ratio at 2 h
16.3

* * *

# PROCEDURE_DETAILS: Clearance in fasted Beagle dog at 2 mg/kg, iv measured for 24 hrs by LC-MS analysis
# Type: ADME, organism-based, Canis lupus familiaris
# TEST_CONTEXT: in vivo
OBSERVED_PROPERTY: clearance (mL/min/kg)
Answers are plain numbers, in mL/min/kg.

Fill in the blank: the reported clearance of O=C(CCOC[C@@H]1CCN1c1cn[nH]c(=O)c1C(F)(F)F)N1CCN2c3ncc(C(F)(F)F)cc3OC[C@@H]2C1 is ____.
7.5

* * *

Could you please report measured pIC50 for the items listed next?
# TGT: Protein mono-ADP-ribosyltransferase TIPARP (Homo sapiens, UniProt Q7Z3E1)
# Sequence (Q7Z3E1 whole entry): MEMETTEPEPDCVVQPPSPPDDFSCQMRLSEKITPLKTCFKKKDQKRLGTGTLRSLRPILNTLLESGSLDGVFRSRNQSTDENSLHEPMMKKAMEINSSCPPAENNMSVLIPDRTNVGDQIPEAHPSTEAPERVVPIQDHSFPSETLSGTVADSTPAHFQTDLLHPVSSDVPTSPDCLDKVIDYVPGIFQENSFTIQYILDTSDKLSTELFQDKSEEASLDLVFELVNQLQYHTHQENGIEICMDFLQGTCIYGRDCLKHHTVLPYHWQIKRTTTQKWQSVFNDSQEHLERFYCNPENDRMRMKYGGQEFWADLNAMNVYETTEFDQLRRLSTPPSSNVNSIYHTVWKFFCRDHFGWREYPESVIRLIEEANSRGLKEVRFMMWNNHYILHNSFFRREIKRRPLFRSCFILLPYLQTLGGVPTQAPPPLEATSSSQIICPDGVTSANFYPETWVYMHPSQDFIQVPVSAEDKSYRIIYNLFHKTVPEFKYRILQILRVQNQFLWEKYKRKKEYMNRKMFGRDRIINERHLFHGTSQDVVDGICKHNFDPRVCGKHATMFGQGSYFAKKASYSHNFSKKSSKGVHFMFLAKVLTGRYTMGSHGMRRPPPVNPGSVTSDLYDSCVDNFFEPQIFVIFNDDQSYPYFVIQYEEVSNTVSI
Answers are plain numbers, as −log10 of the molar value.

Example molecules with recorded pIC50:
molecule=C[C@@H](COCCC(=O)N1CCN2c3ncc(C(F)(F)F)cc3OC[C@H]2C1)Nc1cn[nH]c(=O)c1C(F)(F)F tgt="Protein mono-ADP-ribosyltransferase TIPARP (Homo sapiens, UniProt Q7Z3E1)" observed_property=pIC50 number=8.48
molecule="O=C(CCOCC1CCN1c1cn[nH]c(=O)c1C(F)(F)F)N1CCN2c3ncc(C(F)(F)F)cc3OC[C@@H]2C1 (stereo partly specified)" tgt="Protein mono-ADP-ribosyltransferase TIPARP (Homo sapiens, UniProt Q7Z3E1)" observed_property=pIC50 number=9.15
molecule="O=C(CCOC1CC(Nc2cn[nH]c(=O)c2C(F)(F)F)C1)N1CCN2c3ncc(C(F)(F)F)cc3OC[C@@H]2C1 (stereo partly specified)" tgt="Protein mono-ADP-ribosyltransferase TIPARP (Homo sapiens, UniProt Q7Z3E1)" observed_property=pIC50 number=7.20
molecule=C[C@@H](COCCC(=O)N1CCN2c3ncc(C(F)(F)F)cc3OC[C@@H]2C1)Oc1cn[nH]c(=O)c1C(F)(F)F tgt="Protein mono-ADP-ribosyltransferase TIPARP (Homo sapiens, UniProt Q7Z3E1)" observed_property=pIC50 number=8.76
molecule=O=C(CCOC[C@@H]1CCN1c1cn[nH]c(=O)c1C(F)(F)F)N1CCN2c3ncc(C(F)(F)F)cc3OC[C@@H]2C1 tgt="Protein mono-ADP-ribosyltransferase TIPARP (Homo sapiens, UniProt Q7Z3E1)" observed_property=pIC50 number=9.25

Next molecule, pIC50 to be filled in.
Quick check: pIC50 of C[C@@H](COCCC(=O)N1CCN2c3ncc(C(F)(F)F)cc3OCC2C1)Nc1cn[nH]c(=O)c1C(F)(F)F (mixture of isomers) ?
8.68

* * *

# PROCEDURE_DETAILS: Kinetic solubility of compound at pH 6.5
# Format: physicochemical
# TEST_CONTEXT: buffer, read-out: Kinetic_solubility
OBSERVED_PROPERTY: solubility kinetic (µM)
Give bare numbers, in µM.

I'm hoping you can list solubility kinetic for every molecule here, please.
1. C[C@@H](COCCC(=O)N1CCN(c2ncc(C(F)(F)F)cn2)CC1)Nc1cn[nH]c(=O)c1C(F)(F)F [ATAMPARIB]
2. O=C(CCOC[C@@H]1CCN1c1cn[nH]c(=O)c1C(F)(F)F)N1CCN2c3ncc(C(F)(F)F)cc3OC[C@@H]2C1

1: 151; 2: 154

* * *

# PROCEDURE_DETAILS: Half life in fasted ICR mouse at 10 mg/kg, po measured for 24 hrs by LC-MS analysis
# Format: ADME, organism-based
# TEST_CONTEXT: in vivo
I'd appreciate it if you could supply t1/2 values for the items below.
Give your result as the value with the unit written after it.

compound="C[C@@H](COCCC(=O)N1CCN(c2ncc(C(F)(F)F)cn2)CC1)Nc1cn[nH]c(=O)c1C(F)(F)F [ATAMPARIB]" observed_property=t1/2 result="2.7 h"
compound=O=C(CCOC[C@@H]1CCN1c1cn[nH]c(=O)c1C(F)(F)F)N1CCN2c3ncc(C(F)(F)F)cc3OC[C@@H]2C1 observed_property=t1/2 result="3.7 h"
compound=O=C(CCOC[C@@H]1CCN1c1cn[nH]c(=O)c1C(F)(F)F)N1CCN2c3ncc(Cl)cc3OC[C@@H]2C1 observed_property=t1/2 result="2.1 h"
compound=C[C@@H](COCCC(=O)N1CCN2c3ncc(C(F)(F)F)cc3OC[C@@H]2C1)Oc1cn[nH]c(=O)c1C(F)(F)F observed_property=t1/2 result="4.4 h"

Look at this compound and give its reported t1/2. C[C@@H](COCCC(=O)N1CCN2c3ncc(C(F)(F)F)cc3OC[C@@H]2C1)Nc1cn[nH]c(=O)c1C(F)(F)F
2 h

* * *

# TGT: Poly [ADP-ribose] polymerase 2 (Homo sapiens)
# Sequence (Q9UGN5 whole entry): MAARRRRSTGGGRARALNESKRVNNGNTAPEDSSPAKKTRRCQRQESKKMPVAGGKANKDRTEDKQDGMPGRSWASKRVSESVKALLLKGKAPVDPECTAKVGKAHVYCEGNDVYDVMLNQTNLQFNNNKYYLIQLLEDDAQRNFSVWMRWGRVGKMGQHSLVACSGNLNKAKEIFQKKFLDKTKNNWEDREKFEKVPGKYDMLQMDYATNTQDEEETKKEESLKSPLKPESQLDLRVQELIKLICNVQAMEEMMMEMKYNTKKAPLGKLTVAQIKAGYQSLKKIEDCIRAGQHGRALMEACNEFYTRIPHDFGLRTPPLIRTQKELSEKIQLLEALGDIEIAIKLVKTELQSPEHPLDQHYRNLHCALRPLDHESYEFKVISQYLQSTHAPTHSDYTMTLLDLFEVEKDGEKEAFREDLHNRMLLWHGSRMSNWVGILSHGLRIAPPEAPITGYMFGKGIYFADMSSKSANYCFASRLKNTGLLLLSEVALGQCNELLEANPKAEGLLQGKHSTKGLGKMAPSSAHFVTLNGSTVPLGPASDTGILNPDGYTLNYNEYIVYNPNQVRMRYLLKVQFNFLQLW
OBSERVED_PROPERTY: IC50 (nM)
Answers are plain numbers, in nM.

# get_value(readout='IC50', item= O=C(CCOC[C@@H]1CCN1c1cn[nH]c(=O)c1C(F)(F)F)N1CCN2c3ncc(C(F)(F)F)cc3OC[C@@H]2C1 )
221

* * *

# TGT: Cytochrome P450 2C19 (Homo sapiens, UniProt P33261)
# Sequence (P33261 whole entry): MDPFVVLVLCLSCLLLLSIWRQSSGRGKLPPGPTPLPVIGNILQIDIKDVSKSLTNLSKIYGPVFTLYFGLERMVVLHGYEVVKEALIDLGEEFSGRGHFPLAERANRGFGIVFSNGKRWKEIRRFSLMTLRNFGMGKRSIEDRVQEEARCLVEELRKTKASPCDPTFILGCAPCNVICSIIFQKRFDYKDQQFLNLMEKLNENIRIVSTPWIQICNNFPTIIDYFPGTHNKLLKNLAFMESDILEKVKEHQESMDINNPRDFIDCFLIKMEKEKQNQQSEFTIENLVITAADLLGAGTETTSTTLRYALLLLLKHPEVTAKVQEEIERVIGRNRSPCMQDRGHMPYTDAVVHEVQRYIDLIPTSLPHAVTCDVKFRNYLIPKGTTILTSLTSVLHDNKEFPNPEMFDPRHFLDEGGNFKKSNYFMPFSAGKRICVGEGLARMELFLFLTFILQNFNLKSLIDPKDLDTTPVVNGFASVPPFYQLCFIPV
OBSERVED_PROPERTY: IC50 (µM)
Numbers only, in µM.

Any idea what IC50 came out for O=C(CCOC[C@@H]1CCN1c1cn[nH]c(=O)c1C(F)(F)F)N1CCN2c3ncc(C(F)(F)F)cc3OC[C@@H]2C1 on Cytochrome P450 2C19 (Homo sapiens, UniProt P33261)?
7.55

* * *

Task for the reader: assign each of the following compounds its reported CLint scaled.
# PROCEDURE_DETAILS: Metabolic stability in rat liver microsomes assessed as intrinsic clearance preincubated for 5 mins followed by NADPH addition measured for 1 hr by LC-MS analysis
# Format: ADME, Microsome
# TEST_CONTEXT: time 65 min, read-out: CLH
Numbers only, in mL/min/kg.

mol_smiles=O=C(CCOC[C@@H]1CCN1c1cn[nH]c(=O)c1C(F)(F)F)N1CCN2c3ncc(C(F)(F)F)cc3OC[C@@H]2C1 observed_property="CLint scaled" number=88.8

Here is the next item to consider.
Please give the measured CLint scaled for this compound: C[C@@H](COCCC(=O)N1CCN(c2ncc(C(F)(F)F)cn2)CC1)Nc1cn[nH]c(=O)c1C(F)(F)F
110

* * *

# PROCEDURE_DETAILS: Plasma protein binding in monkey at 2 uM incubated for 1 hr by LC/MS analysis
# Assay type: ADME, cell-free, Macaca mulatta
# TEST_CONTEXT: rhesus monkey, read-out: PPB (converted)
OBSERVED_PROPERTY: fraction unbound at 1 h, 2 µM
Give bare numbers.

Provide fraction unbound at 1 h, 2 µM values for the following items, in order.
1. C[C@@H](COCCC(=O)N1CCN(c2ncc(C(F)(F)F)cn2)CC1)Nc1cn[nH]c(=O)c1C(F)(F)F
2. O=C(CCOC[C@@H]1CCN1c1cn[nH]c(=O)c1C(F)(F)F)N1CCN2c3ncc(C(F)(F)F)cc3OC[C@@H]2C1

[0.347, 0.004]
